Tested on: Setaria faberi (SETFA)
Assay: Biological Example 2 glasshouse assay for herbicidal activity
Format: in vivo
Settings: post-emergence, 360 h, 30 g/ha, 14 or 15 DAA, 0.2% v/v X-77, read-out: percentage phytotoxicity SETFA

| molecule | unit-info | pest or weed control at 30 g/ha |
| --- | --- | --- |
| CC#Cc1cc(F)c(C2=C(OC(=O)c3ccccc3)C3CCC(C3)C2=O)c(OC)c1 (centres unmarked) | % | 80 |
| CC#Cc1cc(F)c(C2C(=O)C3CCC(C3)C2=O)c(OC)c1 (centres unmarked) | % | 90 |
| CC#Cc1cc(F)c(C2C(=O)C3CCC(C3)C2=O)c(OC(F)F)c1 (centres unmarked) | % | 60 |
| CC#Cc1cc(F)c(C2=C(OC(=O)C(C)(C)C)C3CCC(C3)C2=O)c(OC)c1 (centres unmarked) [Compound P1] | % | 80 |
| CC#Cc1cc(F)c(C2=C(OC(=O)SCC)C3CCC(C3)C2=O)c(OC)c1 (centres unmarked) | % | 90 |
| Cc1cc(C)c(C2C(=O)C3CCC(C3)C2=O)c(C)c1 (centres unmarked) [Compound X9, reference compound] | % | 70 |
| CC#Cc1cc(F)c(C2=C(OC(=O)OC(C)C)C3CCC(C3)C2=O)c(OC)c1 (centres unmarked) | % | 100 |
| CCc1cc(C)cc(CC)c1C1C(=O)C2CCC(C2)C1=O (centres unmarked) [Compound X10, reference compound] | % | 100 |
